Biological target: UniProt:P36888
Sequence (P36888 27-993): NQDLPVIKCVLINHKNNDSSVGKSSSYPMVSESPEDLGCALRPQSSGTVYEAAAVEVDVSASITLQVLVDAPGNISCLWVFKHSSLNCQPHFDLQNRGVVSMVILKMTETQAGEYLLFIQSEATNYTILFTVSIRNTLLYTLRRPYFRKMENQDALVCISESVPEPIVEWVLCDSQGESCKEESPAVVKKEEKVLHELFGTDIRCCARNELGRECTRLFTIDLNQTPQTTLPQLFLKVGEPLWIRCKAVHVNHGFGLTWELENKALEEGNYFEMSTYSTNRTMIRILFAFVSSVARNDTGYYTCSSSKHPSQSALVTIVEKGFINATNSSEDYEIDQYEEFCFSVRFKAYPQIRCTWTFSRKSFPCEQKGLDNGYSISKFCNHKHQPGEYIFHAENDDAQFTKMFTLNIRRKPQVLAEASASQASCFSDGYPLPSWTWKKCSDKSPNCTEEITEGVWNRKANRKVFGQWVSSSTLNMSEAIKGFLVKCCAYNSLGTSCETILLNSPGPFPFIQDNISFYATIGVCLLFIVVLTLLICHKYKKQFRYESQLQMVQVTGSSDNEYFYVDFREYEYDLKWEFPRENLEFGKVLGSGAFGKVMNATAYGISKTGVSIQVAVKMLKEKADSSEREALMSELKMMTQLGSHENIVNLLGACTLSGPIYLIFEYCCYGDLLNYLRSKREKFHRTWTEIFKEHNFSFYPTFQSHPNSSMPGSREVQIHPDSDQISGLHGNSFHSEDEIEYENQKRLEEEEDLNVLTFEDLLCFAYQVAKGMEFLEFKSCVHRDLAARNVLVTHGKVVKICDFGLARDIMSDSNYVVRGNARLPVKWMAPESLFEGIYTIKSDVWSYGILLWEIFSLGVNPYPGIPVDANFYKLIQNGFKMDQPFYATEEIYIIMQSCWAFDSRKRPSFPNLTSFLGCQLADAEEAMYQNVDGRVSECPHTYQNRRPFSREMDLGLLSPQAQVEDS
pIC50: −log10 of the molar value.
Observation type: pIC50

What pIC50 appears in the records for this molecule with UniProt:P36888? COc1ccc2c(c1)[C@]1(C[C@H]1c1ccc3c(-c4cccc(CN5CCOCC5)c4)n[nH]c3c1)C(=O)N2 (relative stereo) [Example A136, 2,2,2-trifluoroacetate] < 6.00

* * *

Attribute: IC50
biological target: human PLK4 (Homo sapiens, UniProt O00444); construct: amino terminal GST fusion of residues 1-391 of human PLK4; made in house; host or cells: E. coli; assay: PLK4 inhibition assay (indirect ELISA); format: biochemical; conditions: read-out: IC50 Ranges PLK4

What value of measured IC50 is listed for CC(C)CCN1C(=O)[C@@]2(C[C@H]2c2ccc3c(/C=C/c4ccc(CN(C)C)cc4)n[nH]c3c2)c2ccccc21 (relative stereo) ? < 100 nM

Param item: O=C1Nc2ncc(Br)cc2[C@]12C[C@H]2c1ccc2cn[nH]c2c1 (racemic) 100 to 1000 nM

Check CCN1Cc2ccc(/C=C/c3n[nH]c4cc([C@@H]5C[C@@]56C(=O)Nc5ccc(OC)cc56)ccc34)cc2C1 (relative stereo) [Example A190, 2,2,2-trifluoroacetate] too. < 100 nM

* * *

Molecular target: human PLK4 (Homo sapiens, UniProt O00444)
Construct: amino terminal GST fusion of residues 1-391 of human PLK4; made in house; host or cells: E. coli
Sequence (O00444 1-391): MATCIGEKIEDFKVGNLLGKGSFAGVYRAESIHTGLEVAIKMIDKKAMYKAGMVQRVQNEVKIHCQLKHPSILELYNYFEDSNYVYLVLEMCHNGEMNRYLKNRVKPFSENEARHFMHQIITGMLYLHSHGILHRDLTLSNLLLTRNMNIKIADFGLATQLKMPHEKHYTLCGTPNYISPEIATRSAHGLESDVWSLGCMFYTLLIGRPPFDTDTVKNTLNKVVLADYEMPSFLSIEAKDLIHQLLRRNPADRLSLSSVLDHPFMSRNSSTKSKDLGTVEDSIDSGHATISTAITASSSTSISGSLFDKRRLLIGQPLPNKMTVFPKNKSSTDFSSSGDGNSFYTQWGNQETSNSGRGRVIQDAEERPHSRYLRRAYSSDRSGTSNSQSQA
Experiment: PLK4 inhibition assay (indirect ELISA)
Type: biochemical
Observation type: IC50

>>> reading("COc1ccc2c(c1)[C@]1(C[C@@H]1c1ccc3c(-c4ccc(N5CCN(C)CC5)nc4)n[nH]c3c1)C(=O)N2 (relative stereo) [Example A17]")
"< 100 nM"

Next, consider the following compound.
Quick check: IC50 of CN1CCN(c2ccc(-c3n[nH]c4cc([C@@H]5C[C@@]56C(=O)Nc5ccccc56)ccc34)cn2)CC1 (racemic) [Example A18] ? < 100 nM

* * *

# collection of IC50 values tested on Aurora B (Homo sapiens)
# Sequence (Q96GD4 whole entry): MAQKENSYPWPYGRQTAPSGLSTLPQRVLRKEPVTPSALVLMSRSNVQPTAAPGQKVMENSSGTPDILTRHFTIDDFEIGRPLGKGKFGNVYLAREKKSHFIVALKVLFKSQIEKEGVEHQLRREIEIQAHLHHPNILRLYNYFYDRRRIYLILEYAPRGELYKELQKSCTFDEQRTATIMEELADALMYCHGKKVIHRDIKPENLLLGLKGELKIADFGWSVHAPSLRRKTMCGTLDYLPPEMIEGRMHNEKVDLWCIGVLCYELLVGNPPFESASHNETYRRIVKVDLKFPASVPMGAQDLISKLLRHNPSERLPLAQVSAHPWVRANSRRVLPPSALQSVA

Example entries and their recorded answers appear below.
>>> reading("O=C1Nc2ccc(F)cc2[C@]12C[C@H]2c1ccc2c(/C=C/c3ccc(N4CCOCC4)nc3)n[nH]c2c1 (relative stereo) [Example A207, 2,2,2-trifluoroacetate]")
"< 100 nM"
>>> reading("COc1ccc2c(c1)[C@]1(C[C@H]1c1ccc3c(-c4ccc(N5CCC(O)CC5)nc4)n[nH]c3c1)C(=O)N2 (relative stereo) [Example A117, 2,2,2-trifluoroacetate]")
"100 to 1000 nM"
>>> reading("COc1ccc2c(c1)[C@]1(C[C@H]1c1ccc3c(/C=C/c4ccc(N5CCOCC5)nc4)n[nH]c3c1)C(=O)N2 (relative stereo) [Example A213, 2,2,2-trifluoroacetate]")
"< 100 nM"
>>> reading("COc1ccc2c(c1)[C@]1(C[C@H]1c1ccc3c(-c4ccc(CN5CCOCC5)cc4)n[nH]c3c1)C(=O)N2 (relative stereo) [Example A139, 2,2,2-trifluoroacetate]")
"< 100 nM"
>>> reading("CN1CCN(Cc2ccc(-c3n[nH]c4cc([C@@H]5C[C@@]56C(=O)Nc5ccccc56)ccc34)cc2)CC1 (relative stereo) [Example A155]")
"100 to 1000 nM"

Can you look up the measured IC50 of COc1ccc2c(c1)[C@]1(C[C@H]1c1ccc3c(/C=C/c4ccc(N5CCNCC5)cc4)n[nH]c3c1)C(=O)N2 (relative stereo) [Example A182, 2,2,2-trifluoroacetate] for me? < 100 nM

Param item: COc1ccc2c(c1)[C@]1(C[C@H]1c1ccc3c(C#Cc4ccc(CN5CCOCC5)cc4)n[nH]c3c1)C(=O)N2 (relative stereo) [Example A138, 2,2,2-trifluoroacetate] < 100 nM

For COc1ccc2c(c1)[C@]1(C[C@H]1c1ccc3c(-c4ccc(N5CCC(N(C)C)CC5)cc4)n[nH]c3c1)C(=O)N2 (relative stereo) [Example A119, 2,2,2-trifluoroacetate] then? < 100 nM

* * *

molecular target: human PLK4 (Homo sapiens, UniProt O00444); construct: amino terminal GST fusion of residues 1-391 of human PLK4; made in house; host or cells: E. coli; test: PLK4 inhibition assay (indirect ELISA); type: biochemical; conditions: read-out: IC50 Ranges PLK4
Observation type: IC50

These recorded examples may help you get a feel for the data.
>>> reading("O=C1Nc2ccccc2[C@]12C[C@H]2c1ccc2c(-c3cccc(CN4CCOCC4)c3)n[nH]c2c1 (relative stereo) [Example A153, 2,2,2-trifluoroacetate]")
"0.1 to 1 µM"
>>> reading("COc1ccc2c(c1)[C@]1(C[C@H]1c1ccc3c(-c4ccc(N5CCC(N(C)C)CC5)cc4)n[nH]c3c1)C(=O)N2 [Example A120, 2,2,2-trifluoroacetate]")
"< 0.1 µM"

Continue with the next molecule.
Query the reported IC50 for human PLK4 (Homo sapiens, UniProt O00444); item: COc1ccc2c(c1)[C@]1(C[C@H]1c1ccc3c(/C=C/c4ccc(N5CCN(C(C)C)CC5)cc4)n[nH]c3c1)C(=O)N2 (relative stereo) [Example A189, 2,2,2-trifluoroacetate] < 0.1 µM

Where these numbers come from: patent US8263596B2
